Tested on: Wolbachia pipientis
test.protocol: Anti-Wolbachia Cell-Based Screen
Type: functional
Design: scale not given: in the data most compounds retested in dose-response had high values
condition: 5 µM
Among all 48,000 compounds or so, about 13,000 (27%) showed an effect of 50% or more. This is one part of the list.
Entries whose Percent Effect is below 20% take fulfilled; entries at or above 20% take not fulfilled.

* O=C(NCCN1CCCCC1)c1nc2ccccc2c(=O)[nH]1 | fulfilled
* COc1cc(C(C)=O)ccc1OCC(=O)N(Cc1ccsc1)C1CC1 | fulfilled
* COC(=O)N1CCC(Nc2cccc(F)c2C(C)=O)C1 (centres undefined) | fulfilled
* Cn1cccc1C(=O)OCCNC(=O)c1ccccc1 | fulfilled
* Cc1[nH]c2ccccc2c1-c1ccnc(N[C@@H](CO)C(C)C)n1 | not fulfilled
* Cc1[nH]c2ccccc2c1-c1ccnc(NCCN2CCCCC2)n1 | not fulfilled
* Cc1[nH]c2ccccc2c1-c1ccnc(NCCN2CCOCC2)n1 | fulfilled
* Cc1[nH]c2c(F)cccc2c1CC(=O)N1CCC(NS(C)(=O)=O)CC1 | fulfilled
* COc1ccccc1OCC(=O)NS(=O)(=O)c1ccc(F)cc1F | fulfilled
* Cc1cc(N(Cc2ccccc2F)C2CC2)n2nc(C(F)(F)F)nc2n1 | not fulfilled
* CN(C)c1ccccc1C(=O)N1CCCC(c2cccc(C(=O)O)c2)C1 (centres undefined) | not fulfilled
* Cc1cc(C(=O)NCCC2CCN(C)CC2)ccc1N(C)S(C)(=O)=O | fulfilled
* O=C(CN1CCN(c2ncccn2)[C@@H]2CS(=O)(=O)C[C@@H]21)N1CCCCC1 | fulfilled
* CCOc1ccc2nc(CN3CCOC(CN)C3)ccc2c1 (centres undefined) | fulfilled
* CC(=O)c1ccc(OCC(=O)c2cccn2C)cc1 | not fulfilled
* Cn1cccc(NC(=O)COc2ccc(Cl)cc2)c1=O | fulfilled
* Cc1[nH]c2ccccc2c1-c1ccnc(N[C@H](CO)CC(C)C)n1 | not fulfilled
* Cc1ccc(-c2ccnc(NC(C)c3c(C)n[nH]c3C)n2)c(C)n1 (centres undefined) | fulfilled
* Cc1[nH]c2ccccc2c1-c1ccnc(N[C@@H](C)CO)n1 | not fulfilled
* CC(C)(C#N)c1ccc(NS(=O)(=O)CC2CCCCO2)cc1 (centres undefined) | fulfilled
* O=C(O)c1cccc(C2CCCN(S(=O)(=O)C3CC3)C2)c1 (centres undefined) | fulfilled
* COc1cc(C(C)=O)ccc1OCC(=O)c1cccn1C | not fulfilled
* Cn1cccc1C(=O)COc1ccc(S(N)(=O)=O)cc1 | not fulfilled
* Cc1ccc(C(=O)Nc2ccc(N3CCCC3)cn2)cc1C | fulfilled

----------
Test system: Wolbachia pipientis
test.protocol: Anti-Wolbachia Cell-Based Screen
Format: functional
Set-up: scale not given: in the data most compounds retested in dose-response had high values
condition: 5 µM
About 13,000 (27%) of roughly 48,000 compounds showed an effect of 50% or more. The list shows a part of the results.
measurement.kind: Percent Effect

* CCOCC1CN(C(=O)c2ccncc2)Cc2nn(C)cc21.O=C(O)C(F)(F)F (configuration not stated) | -7.804%
* CCS(=O)(=O)NC1CCCN(c2cc(C)ccc2F)C1=O (configuration not stated) | -7.776%
* N#Cc1cccc(CNc2cc(CO)ccc2Cl)c1 | -41.9%
* CNC(=O)C(C)(C)CNC(=O)Nc1ccc(C)cn1 | -9.639%
* Cc1noc(C)c1CC(=O)NCCN1CCN(S(C)(=O)=O)CC1 | -3.578%
* COCCn1cnnc1CN(C)c1nc(N)ncc1C | 15.34%
* CN(C)c1ccnc(-c2ccnc3c2ccn3C)n1 | -3.285%
* Cn1cnnc1S(=O)(=O)C1CCN(S(=O)(=O)C2CC2)CC1 | -4.739%
* COCCNC(=O)Cn1cc2c(n1)c(C)nn2C | 124.1%
* CN(CCS(=O)(=O)c1cc(Cl)ccc1Cl)CC(=O)Nc1cccc(F)c1 | -24.13%
* CCn1nc2c(cc1=O)CN(Cc1nc(-c3ccoc3)no1)CC2 | -3.016%
* COc1ccc(CCNC(=O)C2CCOC2)c(Cl)c1 (configuration not stated) | -19.93%

----------
// values below are reported Percent Effect
System: Wolbachia pipientis
test.protocol: Anti-Wolbachia Cell-Based Screen
Assay type: functional
Design: scale not given: in the data most compounds retested in dose-response had high values
condition: 5 µM
Screen size: about 48,000 compounds; about 13,000 (27%) showed an effect of 50% or more. The list shows a part of the results.
measurement.kind: Percent Effect

- Cc1cccc(CN2C[C@@H]3CN(C(=O)c4ccco4)C[C@@H]3C2=O)c1: -8.497%
- CCC(C)NC(=O)c1nnn(-c2ccc(Br)cc2)n1 (stereo unspecified): 110.8%
- O=C(C1CCOCC1)N1CCC2(CC1)CC(Oc1ccccc1)CO2 (stereo unspecified): 2.022%
- CN(CCCc1nccn1C)C(=O)C1COc2ccccc2C1 (stereo unspecified): -14.96%
- O=C(C1CCOC1)N1CCC(OCc2ccccc2)CC1 (stereo unspecified): 104.9%
- O=C(CN1CCSCC1c1ccccc1)N1CCOCC1 (stereo unspecified): -10.11%
- CNC(=O)c1ccc(CN2CCC(N(C)Cc3noc(C)n3)C2)cc1 (stereo unspecified): 12.29%
- CCN(CC)CCCNCC1CCOC(C)(C)C1 (stereo unspecified): 90.59%
- CC(=O)Nc1nc(C(=O)NCCOc2cccc(F)c2)cs1: 5.348%
- O=C(O)C(F)(F)F.O=C1[C@H]2CN(C3CCOCC3)C[C@H]2CN1Cc1cccc(F)c1: -0.9945%
- COCCNC(=O)Cn1c(-c2cccc(F)c2)nc(C)c(CCO)c1=O: 196.7%
- O=C1NCCO[C@H]2CN(C(=O)CCc3ccc(Cl)cc3)CC[C@@H]12: 1.273%
- Cc1ncccc1O[C@H]1CCN(C(=O)c2cccs2)CC[C@@H]1O: -0.5375%
- O=C(C1CCOCC1)N1C[C@H]2C[C@H](OCc3ccccc3)C[C@H]2C1: 85.95%
- Cc1cc(=O)n(CC(=O)NCCC(C)C)c(-c2cccc(Cl)c2)n1: -16.01%
- CN(C)C(=O)c1nnn(-c2ccc(Br)cc2)n1: 110.9%
- CN(C)CCN1CC(C(=O)N2CCC(c3nccn3C)CC2)CC1=O (stereo unspecified): 2.201%
- COCC(C)NC(=O)c1nnn(-c2ccc(Br)cc2)n1 (stereo unspecified): 4.837%
- Cn1cc(C(O)CNC(=O)Nc2cc(F)ccc2-n2cccn2)cn1 (stereo unspecified): -4.933%
- Cn1cc(CCCNC(=O)NCC(O)c2ccsc2)cn1 (stereo unspecified): -8.721%
- Cc1nn2c(nc1=O)-c1ccccc1NC2C(=O)O (stereo unspecified): -8.075%
- CCc1ccc(C(=O)N2CC[C@H](Oc3cccnc3C)[C@@H](O)CC2)cc1: 61.09%
- Cc1ccc(NC(=O)NCC(c2cnn(C)c2)N(C)C)c(C)c1 (stereo unspecified): -2.112%
- O=C(C1CCOC1)N1CC2(CCN(c3ccccc3)C2)C1 (stereo unspecified): 126.5%
- COCCN(Cc1cccc(O)c1)Cc1ccccc1F: 0.04507%
- O=C(NCCCn1cnnc1)C1CCCN(C2CCCC2)C1 (stereo unspecified): 8.155%
- CN(CC(N)=O)C(=O)c1cn(-c2ccc(Br)cc2)cn1: 8.695%
- Cc1nc(CN(C)C2CCN(Cc3cccc(F)c3)C2)no1 (stereo unspecified): 130.9%
- COc1ccccc1OC1CCN(C(=O)c2cnc(C)s2)CC1: 3.926%
- CC(C(=O)NCc1ccnc(N2CCN(C)CC2)c1)n1cccn1 (stereo unspecified): -2.51%
- O=C(Cn1c(=O)oc2ccccc21)N1Cc2cnn(CCO)c2C1: -5.203%
- CC(C)Oc1ccc(CN2CCN3CCN(C)CC3C2)cc1CO (stereo unspecified): 9.29%
- CCc1c(C)nc(C)nc1N1C[C@@H](CN(C)C)[C@@H](CO)C1: -2.089%
- O=C(CN1C[C@H]2C[C@H](OCc3ccccc3)C[C@H]2C1)N1CCOCC1: 120.8%
- CCC(CC)(CNC(=O)OC(C)(C)C)NC(=O)C1CCOCC1: 5.998%
- O=C(Cc1cccnc1)N1CCC(OCc2ccccc2)CC1: 5.712%
- CCS(=O)(=O)c1ccccc1N1CCC(NC(=O)c2ccc[nH]2)CC1: 7.844%
- Cc1ccc(C(=O)NCC(O)c2cnn(C)c2)c(Br)c1 (stereo unspecified): 99.45%
- Cc1cccc(CN2C[C@@H]3CN(C(=O)C4CCOC4)C[C@@H]3C2=O)c1 (stereo partly specified): 100.9%
- CSCC(C)(O)CNC(=O)c1cc(Br)ccc1Cl (stereo unspecified): 7.074%
- CC(C)N(C)[C@@H]1CCN(c2ncccn2)[C@H]1Cc1ccncc1.O=C(O)C(F)(F)F.O=C(O)C(F)(F)F: -5.254%
- Cc1ncccc1O[C@H]1CCN(C(=O)Cc2cccs2)CC[C@@H]1O: 6.577%
- O=C(NCc1ccccn1)c1nnn(-c2ccc(Br)cc2)n1: 7.96%
- COc1ccccc1CC1CCCN(CC(=O)N2CCOCC2)C1 (stereo unspecified): 1.243%
- CCN(CC)CCNCC1CCOC(C)(C)C1 (stereo unspecified): 101.9%
- Cc1cc(CN2CC3(CCN(C(=O)C4CC4)CC3)CC2C(=O)O)oc1C (stereo unspecified): -14.13%
